Reported kon by item:
- subject.of.test: T1, recombinant human FGF23 (R179Q) (human, UniProt Q9GZV9 25-251)
- T1 construct: also called rhFGF23(R179Q); hFGF23(R179Q)
- T1 sequence (looked up): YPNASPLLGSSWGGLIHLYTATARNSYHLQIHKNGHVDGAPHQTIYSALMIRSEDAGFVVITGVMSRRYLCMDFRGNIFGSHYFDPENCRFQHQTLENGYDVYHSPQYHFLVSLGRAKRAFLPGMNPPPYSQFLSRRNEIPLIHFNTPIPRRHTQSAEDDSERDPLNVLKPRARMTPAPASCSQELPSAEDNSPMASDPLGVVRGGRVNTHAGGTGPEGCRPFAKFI
- procedure.details: SPR, antibody captured on hIgG chip, rhFGF23(R179Q) analyte
Note: unit M⁻¹ s⁻¹ is implicit; provide only the numeric part.

Examples with answers:
UGX145 (antibody, human IgG1, kappa, V domains shown, also called UGX042; LC:Y94E) VH: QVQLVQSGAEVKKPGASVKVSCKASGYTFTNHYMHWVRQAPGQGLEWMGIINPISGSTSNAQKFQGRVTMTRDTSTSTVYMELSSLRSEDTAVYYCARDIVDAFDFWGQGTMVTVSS VL: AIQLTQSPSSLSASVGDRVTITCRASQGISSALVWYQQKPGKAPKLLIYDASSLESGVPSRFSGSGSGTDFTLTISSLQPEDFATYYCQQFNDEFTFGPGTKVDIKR: 6.42e+06
UGX126 (antibody, human IgG1, kappa, V domains shown, also called LC:S52D; S52D) VH: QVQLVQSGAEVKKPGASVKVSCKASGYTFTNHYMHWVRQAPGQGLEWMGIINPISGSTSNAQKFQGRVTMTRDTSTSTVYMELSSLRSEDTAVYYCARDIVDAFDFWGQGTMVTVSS VL: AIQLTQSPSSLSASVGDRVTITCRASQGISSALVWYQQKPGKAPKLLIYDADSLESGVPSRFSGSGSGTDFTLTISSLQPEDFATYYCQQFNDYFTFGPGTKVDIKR: 1.05e+07
UGX175 (antibody, human IgG1, kappa, V domains shown, also called HC:A103S; A103S) VH: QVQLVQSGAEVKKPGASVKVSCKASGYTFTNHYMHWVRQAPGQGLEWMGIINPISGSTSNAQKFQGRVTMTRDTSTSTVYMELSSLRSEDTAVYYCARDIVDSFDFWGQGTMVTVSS VL: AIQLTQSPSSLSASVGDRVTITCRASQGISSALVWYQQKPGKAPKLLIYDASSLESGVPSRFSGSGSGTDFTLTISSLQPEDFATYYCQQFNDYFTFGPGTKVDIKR: 1.24e+07

Enquiry: Param item = UGX156 (antibody, human IgG1, kappa, V domains shown, also called HC:I54F; I54F) VH: QVQLVQSGAEVKKPGASVKVSCKASGYTFTNHYMHWVRQAPGQGLEWMGIINPFSGSTSNAQKFQGRVTMTRDTSTSTVYMELSSLRSEDTAVYYCARDIVDAFDFWGQGTMVTVSS VL: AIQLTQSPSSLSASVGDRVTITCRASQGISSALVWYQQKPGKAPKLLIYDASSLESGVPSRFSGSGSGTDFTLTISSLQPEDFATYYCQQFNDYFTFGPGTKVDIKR ; retrieve measured kon.
Return: 5.94e+06

Enquiry: What would you report for UGX203 (antibody, human IgG1, kappa, V domains shown, also called HC:S59E, LC:S52D; S59E/S52D) VH: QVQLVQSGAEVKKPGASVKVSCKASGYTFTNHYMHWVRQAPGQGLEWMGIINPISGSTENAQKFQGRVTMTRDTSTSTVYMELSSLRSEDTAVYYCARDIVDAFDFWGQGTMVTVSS VL: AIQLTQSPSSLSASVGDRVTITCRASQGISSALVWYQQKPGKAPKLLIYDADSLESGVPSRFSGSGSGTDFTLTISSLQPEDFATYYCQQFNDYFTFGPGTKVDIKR ?
Return: 1.26e+07

Enquiry: What would you report for UGX157 (antibody, human IgG1, kappa, V domains shown, also called HC:I54Y; I54Y) VH: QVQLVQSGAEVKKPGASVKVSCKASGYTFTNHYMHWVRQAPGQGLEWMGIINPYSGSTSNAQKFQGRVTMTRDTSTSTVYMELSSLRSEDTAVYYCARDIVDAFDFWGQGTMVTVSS VL: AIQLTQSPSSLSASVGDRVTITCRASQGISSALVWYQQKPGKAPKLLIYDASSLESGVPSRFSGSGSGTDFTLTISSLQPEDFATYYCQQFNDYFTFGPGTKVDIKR ?
Return: 1.49e+07
